Target: Gonadotropin-releasing hormone receptor (Homo sapiens)
Sequence (P30968 whole entry): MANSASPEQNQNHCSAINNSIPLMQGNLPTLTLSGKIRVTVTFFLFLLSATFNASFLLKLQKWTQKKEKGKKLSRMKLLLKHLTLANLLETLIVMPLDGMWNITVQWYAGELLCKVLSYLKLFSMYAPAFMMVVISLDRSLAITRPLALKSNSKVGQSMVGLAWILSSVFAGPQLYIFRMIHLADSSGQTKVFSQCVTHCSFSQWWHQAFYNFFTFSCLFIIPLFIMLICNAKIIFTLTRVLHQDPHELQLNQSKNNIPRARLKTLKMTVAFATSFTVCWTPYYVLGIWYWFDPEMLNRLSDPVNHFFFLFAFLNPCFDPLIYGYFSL
Test: Antagonist activity at human GnRH receptor expressed in HEK293 cells as inhibition of GnRH-induced LH secretion by reporter gene assay
pIC50: −log10 of the molar value. Square brackets hold non-standard residues; d marks the D form. Side chains are listed from the residue outwards. Peptide text beside a SMILES is read from it. * marks the point of attachment. dPhe(4-NHCONH2) = NC(=O)Nc1ccc(C[C@@H](N)C(=O)O)cc1; dPhe(4-Cl) = N[C@H](Cc1ccc(Cl)cc1)C(=O)O; Phe(4-NH2) = Nc1ccc(C[C@H](N)C(=O)O)cc1; d2Nal = N[C@H](Cc1ccc2ccccc2c1)C(=O)O; Lys(iPr) = CC(C)NCCCC[C@H](N)C(=O)O; d3Pal = N[C@H](Cc1cccnc1)C(=O)O; Methoxycarbamoyl = CONC(=O)*; PEG3 = NCCOCCOCCOCCC(=O)O
RESULT_TYPE: pIC50

1. CONC(=O)NCCOCCOCCOCCC(=O)Nc1ccc(C[C@H](NC(=O)[C@H](CO)NC(=O)[C@@H](Cc2cccnc2)NC(=O)[C@@H](Cc2ccc(Cl)cc2)NC(=O)[C@@H](Cc2ccc3ccccc3c2)NC(C)=O)C(=O)N[C@H](Cc2ccc(NC(N)=O)cc2)C(=O)N[C@@H](CC(C)C)C(=O)N[C@@H](CCCCNC(C)C)C(=O)N2CCC[C@H]2C(=O)N[C@H](C)C(N)=O)cc1 (Ac-[d2Nal][dPhe(4-Cl)][d3Pal]S[Phe(4-NH2)]([PEG3-Methoxycarbamoyl])[dPhe(4-NHCONH2)]L[Lys(iPr)]P[dA]-NH2) :: 8.97

----------
// reported EC50 for each item listed
Tested on: Mast cell (Rattus norvegicus)
Assay: Histamine release in mast cells by ELISA
RESULT_TYPE: EC50 (µg/mL)

1) CCOCCOCCNC(=O)N[C@H](Cc1ccc2ccccc2c1)C(=O)N[C@H](Cc1ccc(Cl)cc1)C(=O)N[C@H](Cc1cccnc1)C(=O)N[C@@H](CO)C(=O)N[C@@H](Cc1ccc(NC(=O)NOC)cc1)C(=O)N[C@H](Cc1ccc(NC(N)=O)cc1)C(=O)N[C@@H](CC(C)C)C(=O)N[C@@H](CCCCNC(C)C)C(=O)N1CCC[C@H]1C(=O)N[C@H](C)C(N)=O :: 50.6
2) CC(=O)N[C@H](Cc1ccc2ccccc2c1)C(=O)N[C@H](Cc1ccc(Cl)cc1)C(=O)N[C@H](Cc1cccnc1)C(=O)N[C@@H](CO)C(=O)N[C@@H](Cc1ccc(NC(=O)NO)cc1)C(=O)N[C@H](Cc1ccc(NC(N)=O)cc1)C(=O)N[C@@H](CC(C)C)C(=O)N[C@@H](CCCCNC(C)C)C(=O)N1CCC[C@H]1C(=O)N[C@H](C)C(N)=O :: 118
3) CONC(=O)Nc1ccc(C[C@H](NC(=O)[C@H](CO)NC(=O)[C@@H](Cc2cccnc2)NC(=O)[C@@H](Cc2ccc(Cl)cc2)NC(=O)[C@@H](Cc2ccc3ccccc3c2)NC(C)=O)C(=O)N[C@H](Cc2ccc(NC(=O)NOC)cc2)C(=O)N[C@@H](CC(C)C)C(=O)N[C@@H](CCCCNC(C)C)C(=O)N2CCC[C@H]2C(=O)N[C@H](C)C(N)=O)cc1 :: 46
